tested on: Plenodomus lingam; test: Inhibition of Leptosphaeria maculans brassinin oxidase assessed as relative protein at 0.10 mM relative to control
measured-attribute: Ratio

structure-notation | target-desc | observed-result
Fc1ccc2[nH]cc(-c3nccs3)c2c1 | Plenodomus lingam | 0.3
COc1ccc2[nH]cc(-c3nccs3)c2c1 | Plenodomus lingam | 0.28
Fc1ccc2c(-c3nccs3)c[nH]c2c1 | Plenodomus lingam | 0.36

* * *

system: Plenodomus lingam; experiment: Inhibition of Leptosphaeria maculans brassinin oxidase activity at 0.30 mM relative to control
measured-attribute: inhibition (%)

Study these solved cases before continuing.
structure-notation | measured-attribute | observed-result
Fc1ccc2[nH]cc(-c3nccs3)c2c1 | inhibition | 63
c1ccc2c(-c3nccs3)c[nH]c2c1 | inhibition | 53
c1ccc2cc(-c3cnsc3)ccc2c1 | inhibition | 42
Fc1ccc2c(-c3nccs3)c[nH]c2c1 | inhibition | 46
COc1ccc2[nH]cc(-c3nccs3)c2c1 | inhibition | 72
c1ccc2c(-c3cnsc3)cccc2c1 | inhibition | 21

(1) Fc1ccc2c(-c3ccccc3)c[nH]c2c1
(2) COc1ccc2c(-c3nccs3)c[nH]c2c1
(3) c1ccc2[nH]c(-c3cscn3)nc2c1
Order these by inhibition, descending, and give the full ranking. // format: requested-order list of labels 2, 3, 1
(2: 63%, 3: 25%, 1: 17%)

* * *

tested on: Plenodomus lingam; test: Inhibition of Leptosphaeria maculans brassinin oxidase assessed as relative protein at 0.10 mM relative to control
measured-attribute: Ratio

Study these solved cases before continuing.
structure-notation | observed-result
c1ccc2cc(-c3cnsc3)ccc2c1 | 0.26
COc1ccc2c(-c3nccs3)c[nH]c2c1 | 0.27
c1ccc2[nH]c(-c3cscn3)nc2c1 | 0.35

(1) c1ccc2c(-c3nccs3)c[nH]c2c1
(2) c1ccc(-c2c[nH]c3ccccc23)cc1
Lab note: record which item had the higher Ratio, 1 or 2 . To answer, give the label that identifies your chosen option. 1
(1: 0.28, 2: 0.18)

* * *

tested on: Plenodomus lingam; assay: Inhibition of Leptosphaeria maculans brassinin oxidase activity at 0.10 mM relative to control
measured-attribute: inhibition (%)

structure-notation | observed-result
c1ccc2c(-c3cnsc3)cccc2c1 | 16

(P) Fc1ccc2c(-c3ccccc3)c[nH]c2c1
(Q) Fc1ccc2c(-c3nccs3)c[nH]c2c1
Lab note: record which item had the higher inhibition, P or Q . To answer, give the label that identifies your chosen option. Q
(Q: 29%, P: 11%)

(I) COc1ccc2c(-c3nccs3)c[nH]c2c1
(II) c1ccc2[nH]c(-c3cscn3)nc2c1
Lab note: record which item had the higher inhibition, I or II . To answer, give the label that identifies your chosen option. I
(I: 41%, II: 16%)

(a) COc1ccc2[nH]cc(-c3nccs3)c2c1
(b) c1ccc2c(-c3nccs3)c[nH]c2c1
Lab note: record which item had the higher inhibition, a or b . To answer, give the label that identifies your chosen option. a

(1) c1ccc2cc(-c3cnsc3)ccc2c1
(2) Fc1ccc2[nH]cc(-c3nccs3)c2c1
Lab note: record which item had the higher inhibition, 1 or 2 . To answer, give the label that identifies your chosen option. 2
(2: 47%, 1: 29%)

* * *

// reported inhibition at 500 µM per item
tested on: Plenodomus lingam; assay: Antifungal activity against Leptosphaeria maculans assessed as inhibition of mycelial growth at 0.50 mM relative to control; assay type: functional
Numeric only. Scale: %

Study these solved cases before continuing.
structure-notation | unit-info | observed-result
c1ccc2c(-c3nccs3)c[nH]c2c1 | % | 100
COc1ccc2[nH]cc(-c3nccs3)c2c1 | % | 100
Fc1ccc2[nH]cc(-c3nccs3)c2c1 | % | 100
COc1ccc2c(-c3nccs3)c[nH]c2c1 | % | 100

Please turn your attention to the following entry.
Consider Fc1ccc2c(-c3nccs3)c[nH]c2c1 . Its measured inhibition at 500 µM is 83

* * *

tested on: Plenodomus lingam; test: Inhibition of Leptosphaeria maculans brassinin oxidase assessed as relative specific activity at 0.10 mM relative to control
measured-attribute: Ratio

structure-notation | observed-result
c1ccc2cc(-c3cnsc3)ccc2c1 | 2.6
COc1ccc2[nH]cc(-c3nccs3)c2c1 | 1.7
c1ccc2c(-c3nccs3)c[nH]c2c1 | 4.5
Fc1ccc2[nH]cc(-c3nccs3)c2c1 | 5

(P) COc1ccc2c(-c3nccs3)c[nH]c2c1
(Q) Fc1ccc2c(-c3nccs3)c[nH]c2c1
(R) c1ccc(-c2c[nH]c3ccccc23)cc1
Provide the items ranked by increasing Ratio. // format: requested-order list of labels P, Q, R

* * *

// reported inhibition at 200 µM per item
system: Plenodomus lingam; assay: Antifungal activity against Leptosphaeria maculans assessed as inhibition of mycelial growth at 0.20 mM relative to control; type: functional
Numeric only. Scale: %

Study these solved cases before continuing.
structure-notation | observed-result
Fc1ccc2[nH]cc(-c3nccs3)c2c1 | 81
COc1ccc2[nH]cc(-c3nccs3)c2c1 | 84

Consider Fc1ccc2c(-c3nccs3)c[nH]c2c1 . Its measured inhibition at 200 µM is 47

Consider c1ccc2c(-c3nccs3)c[nH]c2c1 . Its measured inhibition at 200 µM is 65

Consider c1ccc2cc(-c3cnsc3)ccc2c1 . Its measured inhibition at 200 µM is 53

Consider COc1ccc2c(-c3nccs3)c[nH]c2c1 . Its measured inhibition at 200 µM is 78

* * *

tested on: Plenodomus lingam; experiment: Inhibition of Leptosphaeria maculans brassinin oxidase assessed as relative specific activity at 0.20 mM relative to control
measured-attribute: Ratio

Study these solved cases before continuing.
structure-notation | observed-result
Fc1ccc2c(-c3nccs3)c[nH]c2c1 | 4
c1ccc2[nH]c(-c3cscn3)nc2c1 | 4.1
COc1ccc2[nH]cc(-c3nccs3)c2c1 | 5.8
Fc1ccc2[nH]cc(-c3nccs3)c2c1 | 4.9
c1ccc2cc(-c3cnsc3)ccc2c1 | 8.5

(1) COc1ccc2c(-c3nccs3)c[nH]c2c1
(2) c1ccc2c(-c3nccs3)c[nH]c2c1
(3) c1ccc(-c2c[nH]c3ccccc23)cc1
Order these by Ratio, descending, and give the full ranking. // format: requested-order list of labels 3, 2, 1

* * *

test system: Plenodomus lingam; assay: Inhibition of Leptosphaeria maculans brassinin oxidase assessed as relative specific activity at 0.50 mM relative to control
measured-attribute: Ratio

structure-notation | observed-result
Fc1ccc2c(-c3nccs3)c[nH]c2c1 | 1.8
Fc1ccc2[nH]cc(-c3nccs3)c2c1 | 7.9
COc1ccc2c(-c3nccs3)c[nH]c2c1 | 4

(A) c1ccc2c(-c3nccs3)c[nH]c2c1
(B) COc1ccc2[nH]cc(-c3nccs3)c2c1
(C) c1ccc2cc(-c3cnsc3)ccc2c1
(D) c1ccc2[nH]c(-c3cscn3)nc2c1
Provide the items ranked by increasing Ratio. // format: requested-order list of labels B, A, D, C
(B: 1.6, A: 2.5, D: 4.9, C: 16.3)
